Origin of values: ChEMBL document CHEMBL1131533

Sequence of the target: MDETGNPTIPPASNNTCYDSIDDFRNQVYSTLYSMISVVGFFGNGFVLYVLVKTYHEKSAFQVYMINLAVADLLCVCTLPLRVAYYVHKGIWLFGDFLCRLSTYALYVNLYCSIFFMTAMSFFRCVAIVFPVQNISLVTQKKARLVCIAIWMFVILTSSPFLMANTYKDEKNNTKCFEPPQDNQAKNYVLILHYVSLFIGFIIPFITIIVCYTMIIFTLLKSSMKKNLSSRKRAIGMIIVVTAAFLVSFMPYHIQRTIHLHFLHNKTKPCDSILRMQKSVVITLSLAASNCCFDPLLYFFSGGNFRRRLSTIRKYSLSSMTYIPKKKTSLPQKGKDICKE
endpoint: IC50 (nM)
Number in nM, nothing else.

Return reported IC50; argument: O=C(O)c1cccc2c(=O)cc(-c3cccc(/C=C/c4ccc5ccccc5n4)c3)oc12
17
